# Assayed Target: human recombinant CBL-b (human Biotin CBL-b recombinant protein a.a. 39-426) (Homo sapiens)
# Construct: human Biotin CBL-b recombinant protein a.a; 39-426; Biotin (biotinylated)
# Sequence (Q13191 39-426): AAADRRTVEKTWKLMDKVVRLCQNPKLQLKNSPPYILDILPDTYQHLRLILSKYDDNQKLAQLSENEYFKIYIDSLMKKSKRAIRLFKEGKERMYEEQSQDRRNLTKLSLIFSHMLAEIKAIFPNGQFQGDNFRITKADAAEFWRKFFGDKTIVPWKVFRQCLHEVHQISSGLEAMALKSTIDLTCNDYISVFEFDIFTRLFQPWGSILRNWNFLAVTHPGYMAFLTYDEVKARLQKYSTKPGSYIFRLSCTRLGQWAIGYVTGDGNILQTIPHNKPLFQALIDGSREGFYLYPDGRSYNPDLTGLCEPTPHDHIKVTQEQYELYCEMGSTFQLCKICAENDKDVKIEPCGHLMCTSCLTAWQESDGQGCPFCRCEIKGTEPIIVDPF
# Method Summary: Biochemical assay for CBL-b inhibition (ligand displacement TR-FRET)
# Applied Conditions: 50 nM CBL-b, 0.3 μM Bodipy FL-Probe, read-out: IC50 (CBL-b inhibition, group)
pIC50: −log10 of the molar value.
The entries below are paired with their reported pIC50.
Measured Metric: pIC50

{"Molecule": "CC(NCC1CC1(F)F)c1cc(Cl)nc(N2Cc3ccc(C4(Cc5nncn5C)COC4)cc3C2=O)c1 (stereo not drawn) [Compound 199]", "Measured Metric": "pIC50", "Assay Result": "> 7.10"}
{"Molecule": "Cc1cc(CN[C@@H]2CCC[C@H]2O)cc(N2Cc3ccc(-c4ccc(F)cc4-c4nncn4C)cc3C2=O)n1", "Measured Metric": "pIC50", "Assay Result": "> 7.10"}
{"Molecule": "Cc1ccnc(CNCc2cc(Cl)nc(N3Cc4ccc(C5(Cc6nncn6C)COC5)cc4C3=O)c2)c1", "Measured Metric": "pIC50", "Assay Result": "5.30 to 6.52"}
{"Molecule": "CCC(NCc1cc(C)nc(N2Cc3ccc(-c4ccc(F)cc4-c4nncn4C)cc3C2=O)c1)C(=O)NC (stereo not drawn)", "Measured Metric": "pIC50", "Assay Result": "5.30 to 6.52"}
{"Molecule": "CCNCCc1cc(N2Cc3ccc(C4(Cc5nncn5C)COC4)cc3C2=O)cc(C(F)(F)F)c1", "Measured Metric": "pIC50", "Assay Result": "5.30 to 6.52"}
{"Molecule": "Cc1cc(CN2C[C@@H](C)C[C@H](C)C2)cc(N2Cc3ccc(C4(Cc5nncn5C)COC4)cc3C2=O)c1", "Measured Metric": "pIC50", "Assay Result": "6.52 to 7.10"}
{"Molecule": "C[C@H]1CCCN(Cc2cc(N3Cc4ccc(C5(Cc6nncn6C)COC5)cc4C3=O)cc(C(F)(F)F)n2)C1", "Measured Metric": "pIC50", "Assay Result": "5.30 to 6.52"}
{"Molecule": "Cc1nc(N2Cc3ccc(-c4ccc(F)cc4-c4nncn4C)cc3C2=O)cc(CNCC2CC2)c1C(F)(F)F", "Measured Metric": "pIC50", "Assay Result": "> 7.10"}
{"Molecule": "C[C@H]1CCCN(Cc2cc(Br)cc(N3Cc4ccc(C5(Cc6nncn6C)COC5)cc4C3=O)c2)C1", "Measured Metric": "pIC50", "Assay Result": "> 7.10"}
{"Molecule": "COC1(CNCc2cc(C)nc(N3Cc4ccc(-c5ccc(F)cc5-c5nncn5C)cc4C3=O)c2)CC1", "Measured Metric": "pIC50", "Assay Result": "6.52 to 7.10"}
{"Molecule": "Cn1cnnc1CC1(c2ccc3c(c2)C(=O)N(c2cc(CNCCC(F)(F)F)cc(Cl)n2)C3)COC1", "Measured Metric": "pIC50", "Assay Result": "> 7.10"}
{"Molecule": "Cn1cnnc1CC1(c2ccc3c(c2)C(=O)N(c2cc(CNCC4CCCO4)cc(Cl)n2)C3)COC1 (stereo not drawn)", "Measured Metric": "pIC50", "Assay Result": "> 7.10"}
{"Molecule": "Cn1cnnc1CC1(c2ccc3c(c2)C(=O)N(c2cc(CNCc4cscn4)cc(Cl)n2)C3)COC1", "Measured Metric": "pIC50", "Assay Result": "> 7.10"}
{"Molecule": "Cc1cc(CNCC2CC2(F)F)cc(N2Cc3ccc(C4(Cc5nncn5C)COC4)cc3C2=O)c1 (stereo not drawn)", "Measured Metric": "pIC50", "Assay Result": "6.52 to 7.10"}
{"Molecule": "Cn1cnnc1CC1(c2ccc3c(c2)C(=O)N(c2cc(CNCC4CC(F)(F)C4)cc(Cl)n2)C3)CC(C#N)C1 (stereo not drawn)", "Measured Metric": "pIC50", "Assay Result": "> 7.10"}
